Details: in water, 283.15 K
measured_parameter: solubility (mole fraction)
Answers are plain numbers.

Query (compound): C#C[C@]1(O)CC[C@H]2[C@@H]3CCC4=CC(=O)CC[C@@H]4[C@H]3C(=C)C[C@@]21CC ; field requested: solubility (mole fraction)
1.8e-05

* * *

Conditions: in isopropanol, 303.15 K
measured_parameter: solubility (mole fraction)
One number for each entry.

// solubility (mole fraction) lookup, key: C#C[C@]1(O)CC[C@H]2[C@@H]3CCC4=CC(=O)CC[C@@H]4[C@H]3C(=C)C[C@@]21CC
0.0121

* * *

Details: in isopropanol, 318.15 K
measured_parameter: solubility (mole fraction)

// lookup solubility (mole fraction) for C#C[C@]1(O)CC[C@H]2[C@@H]3CCC4=CC(=O)CC[C@@H]4[C@H]3C(=C)C[C@@]21CC
0.0174

* * *

Details: in n-propanol, 308.15 K
measured_parameter: solubility (mole fraction)
Numbers only.

Quick one: solubility (mole fraction) for C#C[C@]1(O)CC[C@H]2[C@@H]3CCC4=CC(=O)CC[C@@H]4[C@H]3C(=C)C[C@@]21CC ?
0.0117

* * *

Details: in n-propanol, 283.15 K
measured_parameter: solubility (mole fraction)
Answers are plain numbers.

Name the recorded solubility (mole fraction) for C#C[C@]1(O)CC[C@H]2[C@@H]3CCC4=CC(=O)CC[C@@H]4[C@H]3C(=C)C[C@@]21CC .
0.00579

* * *

Settings: in isopropanol, 288.15 K
measured_parameter: solubility (mole fraction)
Answers are plain numbers.

Give the measured solubility (mole fraction) of C#C[C@]1(O)CC[C@H]2[C@@H]3CCC4=CC(=O)CC[C@@H]4[C@H]3C(=C)C[C@@]21CC .
0.00803

* * *

Conditions: in water, 288.15 K
measured_parameter: solubility (mole fraction)
One number for each entry.

Look up solubility (mole fraction): C#C[C@]1(O)CC[C@H]2[C@@H]3CCC4=CC(=O)CC[C@@H]4[C@H]3C(=C)C[C@@]21CC
2.15e-05

* * *

Conditions: in water, 278.15 K
measured_parameter: solubility (mole fraction)

Given C#C[C@]1(O)CC[C@H]2[C@@H]3CCC4=CC(=O)CC[C@@H]4[C@H]3C(=C)C[C@@]21CC , state its recorded solubility (mole fraction).
1.48e-05

* * *

Details: in n-propanol, 278.15 K
measured_parameter: solubility (mole fraction)
One number for each entry.

Entry C#C[C@]1(O)CC[C@H]2[C@@H]3CCC4=CC(=O)CC[C@@H]4[C@H]3C(=C)C[C@@]21CC : reported solubility (mole fraction) = ?
0.00504

* * *

Conditions: in DMF, 288.15 K
measured_parameter: solubility (mole fraction)
One number for each entry.

// lookup solubility (mole fraction) for C#C[C@]1(O)CC[C@H]2[C@@H]3CCC4=CC(=O)CC[C@@H]4[C@H]3C(=C)C[C@@]21CC
0.0882

* * *

Details: in n-propanol, 303.15 K
measured_parameter: solubility (mole fraction)
One number for each entry.

// returns reported solubility (mole fraction) for input C#C[C@]1(O)CC[C@H]2[C@@H]3CCC4=CC(=O)CC[C@@H]4[C@H]3C(=C)C[C@@]21CC
0.0103

* * *

Conditions: in n-propanol, 298.15 K
measured_parameter: solubility (mole fraction)
Answers are plain numbers.

Give the measured solubility (mole fraction) of C#C[C@]1(O)CC[C@H]2[C@@H]3CCC4=CC(=O)CC[C@@H]4[C@H]3C(=C)C[C@@]21CC .
0.00901
